# tested on: Calcium-dependent protein kinase 1 (Plasmodium falciparum (isolate 3D7))
# test details: PfCDPK1 kinase inhibitors, biochemical, TCAMS library (AID 1159585);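 note: inhibitors leave more ATP so luminescence rises with inhibition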
# details: recombinant PfCDPK1, Kinase-Glo ATP depletion luminescence
Measured potencies and affinities stand elsewhere. Calls of active or inactive are those of the source. No cut-off is given here; in the data, nearly all actives have IC50 up to about 0.98 µM.
measured attribute: outcome

Here is how some molecules turned out for outcome.
{"columns": ["structure smiles", "outcome"],
 "data": [
  ["CCOc1cc2ncnc(Nc3ccc(OCc4ccccc4F)c(Cl)c3)c2cc1OCC", "inactive"],
  ["COCCNC(=O)c1ccc(OC2CCN(CC(C)=Cc3ccccc3)CC2)c(Cl)c1", "inactive"],
  ["Cc1ccc2c(NN=Cc3cccc(Cl)c3)cc(C)nc2c1", "inactive"],
  ["Nc1nc2ccc(S(=O)(=O)Nc3ccc(C(=O)N[C@@H](CCC(=O)O)C(=O)O)c(F)c3)cc2c(=O)[nH]1", "inactive"]
]}

// recorded outcome for O=C(Nc1ccc(F)c(C(F)(F)F)c1)NC1CCN(CCCCCNC(=O)[C@@H]2C[C@H]2c2ccc(Cl)c(Cl)c2)CC1 : inactive

---

# tested on: L-lactate dehydrogenase (Plasmodium falciparum (isolate CDC / Honduras)) (UniProt Q27743)
# Sequence (Q27743 whole entry, looked up): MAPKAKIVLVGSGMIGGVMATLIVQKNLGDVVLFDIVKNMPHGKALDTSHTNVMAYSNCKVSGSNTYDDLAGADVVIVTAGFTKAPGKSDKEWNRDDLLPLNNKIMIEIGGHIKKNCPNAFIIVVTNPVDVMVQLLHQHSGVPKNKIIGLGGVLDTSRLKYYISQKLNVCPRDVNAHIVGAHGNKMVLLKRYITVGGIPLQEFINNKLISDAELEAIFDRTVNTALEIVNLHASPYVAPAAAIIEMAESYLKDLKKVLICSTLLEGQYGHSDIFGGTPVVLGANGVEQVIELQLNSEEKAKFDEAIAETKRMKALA
# test details: PfLDH activity inhibition – cell lysate, 3D7 strain, counter-screen for P. falciparum growth inhibition project (AID 2304);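 note: 0% = vehicle and 100% = reference inhibitor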
# details: P. falciparum 3D7 crude extract, LDH APAD/NBT absorbance; at 2 µM; active compounds read high
Listed here are molecules together with their documented inhibition.
Write the value in % as a bare number.

{"columns": ["molecule", "unit of measurement", "inhibition"],
 "data": [
  ["CNc1nc(NN=Cc2cc3c(cc2[N+](=O)[O-])OCO3)nc(Nc2cccc(C(F)(F)F)c2)n1", "%", 2]
]}

Let's switch to this molecule now.
// recorded inhibition for O=[N+]([O-])c1ccc(-n2nc(Cc3ccccc3)n(Cc3cccc(F)c3)c2=S)c(C(F)(F)F)c1 : -3

---

Listed here are molecules together with their documented inhibition.
# tested on: L-lactate dehydrogenase (Plasmodium falciparum (isolate CDC / Honduras)) (UniProt Q27743)
# test details: PfLDH activity inhibition – cell lysate, 3D7 strain, counter-screen for P. falciparum growth inhibition project (AID 2304);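 note: 0% = vehicle and 100% = reference inhibitor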
# details: P. falciparum 3D7 crude extract, LDH APAD/NBT absorbance; at 2 µM; active compounds read high
Write the value in % as a bare number.

{"columns": ["molecule", "unit of measurement", "inhibition"],
 "data": [
  ["CC1(C)CCCN(C(=O)c2cccc(-n3nc(-c4ccc(Cl)cc4)cc3N)c2)C1", "%", -2],
  ["CC1CCCCN1Cc1cccc(-c2c[nH]c3nc(NC4CCCC4)ncc23)c1 (stereo unspecified)", "%", -2],
  ["O=c1c(Br)ccccc1Br", "%", 0],
  ["COc1c(O)cc2oc(-c3ccc(O)cc3)cc(=O)c2c1O", "%", -1]
]}

// recorded inhibition for CN(CCN)Cc1cccc(-c2ccc(-c3nc4ccc(C(F)(F)F)cc4[nH]3)s2)c1 : 5

// recorded inhibition for CC1(C)N=C(N)N=C(N)N1OCCCOc1cc(Cl)ccc1Cl : -1

// recorded inhibition for COc1cc(NC(=O)c2c(-c3c(Cl)cccc3Cl)noc2C)c(OC)cc1Cl : 0

// recorded inhibition for COc1ccc2nccc(NN=Cc3ccc(Cl)cc3)c2c1 : -1

// recorded inhibition for CC(C)CCNc1nc(NCCc2ccccc2)c2cc(O)ccc2n1 : 7

// recorded inhibition for Cc1ccc(CN2CCN(Cc3cccc(NC(=O)c4ccc5ccccc5c4)c3)CC2)cc1C : -4

// recorded inhibition for O=C(Nc1cccc(CN2CCCN(Cc3cccc(Cl)c3)CC2)c1)c1ccc(Cl)c(Cl)c1 : -1

---

# test details: human hepatoma cell viability loss – ATP luminescence, cytotoxicity control for P. falciparum antimalarial project, primary screen (AID 2303);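 note: 0% = DMSO wells and 100% = digitonin-killed cells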
# details: HepG2 viability, 24-48 h, at 10 µM
The source made the active and inactive calls.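 Rule for the calls: active = inhibition above 50%; inactive = the rest.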
Your answer must be one of the following: label 1 for active, label 0 for inactive

{"columns": ["molecule", "class name"],
 "data": [
  ["CC(C)Oc1ccc(CCCON2C(N)=NC(N)=NC2(C)C)cc1", "label 1"]
]}

Look up the recorded call for COc1ccc2ncc(Cl)c(CCN3C[C@H](CNCc4ccc5c(n4)NC(=O)CS5)[C@H](O)C3)c2n1 in this test.
label 0

Look up the recorded call for NCc1ccc(CNCc2cccc(-c3cccc(-c4nc5ccccc5[nH]4)c3)c2)cc1 in this test.
label 0

Look up the recorded call for Cc1ccc(NC(=O)NC2CCN(CCC(NC(=O)Cc3ccccc3)c3ccc(Cl)c(Cl)c3)CC2)cc1 (stereo not given) in this test.
label 0

Look up the recorded call for CC(C)n1nc(C(=O)N2CCN(c3ccccc3)CC2)c2ccccc2c1=O in this test.
label 0

Look up the recorded call for N=C(N)c1ccc(-c2cc3ccc(C(=N)N)cc3[nH]2)cc1 in this test.
label 0

Look up the recorded call for O=C1CCCN1CCCNCc1ccc(-c2ccc(-c3nc4ccc(C(F)(F)F)cc4[nH]3)s2)cc1 in this test.
label 0

Look up the recorded call for COc1ccc(-c2cccc(NC(=O)c3ccccc3)c2)cc1CN1CCCN(C)CC1 in this test.
label 0

Look up the recorded call for Cc1ccc(NC(=O)c2ccc(CN3CCCN(Cc4cccc(Cl)c4)CC3)cc2)cc1C in this test.
label 0

Look up the recorded call for COc1cccc(-c2csc(C(=O)NC3CCCCN(Cc4ccc(C(C)(C)C)cc4)C3)c2)c1 (stereo not given) in this test.
label 0

Look up the recorded call for Cc1sc(CNCCCNc2cc(=O)c3ccccc3[nH]2)c(I)c1C in this test.
label 0

Look up the recorded call for CC[C@H](C)CNC(=O)c1cccc(-c2cccc(CN3CCC(N4CCCC4)CC3)c2)n1 in this test.
label 0

---

# tested on: Protein kinase 7 (PK7), Plasmodium falciparum 3D7 (PF3D7_0213400)
# test details: inhibition of Plasmodium PK7 catalytic activity – biochemical, TCAMS antimalarial set, Kinase-Glo luminescence (AID 1159587)
# details: recombinant PfPK7, Kinase-Glo ATP depletion luminescence
Calls of active or inactive are those of the source. The rule behind the calls is not given here.
measured attribute: outcome

Here is how some compounds turned out for outcome.
{"columns": ["compound", "outcome"],
 "data": [
  ["COc1ccc(Nc2nccc(N3CCC(NC(=O)Nc4cc(C)ccc4C)C3)n2)cc1 (stereo not given)", "inactive"],
  ["COc1cccc(NC(=O)c2cc(C(=O)Nc3cccc(OC)c3)cc([N+](=O)[O-])c2)c1", "inactive"],
  ["CCOC(=O)CNC(=O)N(CCN(Cc1ccccc1)C(=O)NCC(=O)OCC)Cc1ccccc1", "inactive"],
  ["C=CCc1cccc(OC)c1OCCCON1C(N)=NC(N)=NC1(C)C", "inactive"]
]}

Let's switch to this compound now.
// recorded outcome for CC(=O)Nc1ncc(C(=O)Nc2cccc(-c3ccc(-c4nc5ccc(C(F)(F)F)cc5[nH]4)s3)c2)s1 : inactive

---

# test details: human hepatoma cell viability loss – ATP luminescence, cytotoxicity control for P. falciparum antimalarial project, primary screen (AID 2303);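 note: 0% = DMSO wells and 100% = digitonin-killed cells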
# details: HepG2 viability, 24-48 h, at 10 µM, active compounds read high
Please note: inhibition exactly at 20% is Condition not met. Only values below 20% get Condition met.

{"columns": ["compound", "class name"],
 "data": [
  ["CN1CCc2ccc(NC(=O)Nc3ccc(-c4ccccc4)cc3)cc2C1", "Condition not met"],
  ["COc1cccc2cc(C(=O)N[C@@H](CC(C)C)C(=O)N[C@H](/C=N/NC(=O)Cc3cccnc3)CCc3ccccc3)oc12", "Condition met"]
]}

Decide: inhibition of COCCNCc1ncsc1-c1ccc2c(Nc3cc(O)ccc3C)ccnc2c1 strictly below 20%?
Condition met

Decide: inhibition of O=C(NCCCCN1CCC(c2ccc3c(c2OCC(O)c2ccc(Cl)cc2)CCCC3)CC1)c1ccc(-c2ccc(C(F)(F)F)cc2)cc1 (centres undefined) strictly below 20%?
Condition not met

Decide: inhibition of O=C(NCCCCN1CCC(c2ccc3c(c2OCc2ccncc2)CCCC3)CC1)c1ccc(-c2ccc(C(F)(F)F)cc2)cc1 strictly below 20%?
Condition not met

Decide: inhibition of CCOc1cc(C)ccc1C1CCN(CCCCNC(=O)c2coc(-c3ccc(Cl)cc3)c2)CC1 strictly below 20%?
Condition not met

Decide: inhibition of CNC(=O)CSc1nnc(-c2ccc(C)cc2)c(-c2ccc(C)cc2)n1 strictly below 20%?
Condition met

Decide: inhibition of CN1CCC(N(Cc2ccc(-c3cnc(NCc4ccccc4)nc3)cc2)S(=O)(=O)c2ccccc2)CC1 strictly below 20%?
Condition not met

Decide: inhibition of CCOc1ccc2nc3cc([N+](=O)[O-])ccc3c(N)c2c1 strictly below 20%?
Condition not met

Decide: inhibition of CC(C)(C)c1ccc(NC(=O)c2ccc(CN3CCCN(Cc4cccc(O)c4)CC3)cc2)cc1 strictly below 20%?
Condition not met

Decide: inhibition of Cc1cc(NC(=O)CCN2CCN(c3cccc(Cl)c3Cl)CC2)ccc1N1CCN(C(C)C)CC1 strictly below 20%?
Condition not met

Decide: inhibition of Fc1ccc2nc(-c3ccc(-c4cccc(CN5CCCCC5)c4)cc3)[nH]c2c1 strictly below 20%?
Condition met

Decide: inhibition of COc1ccc(-c2cncc3ccc(C(=O)NCc4ccncc4)nc23)cc1 strictly below 20%?
Condition not met

Decide: inhibition of Oc1ccc(CCNc2nc(NCc3ccc4cc(Cl)ccc4c3)nc(N3CCNCC3)n2)cc1 strictly below 20%?
Condition met

Decide: inhibition of CCCc1ccc(C2CCN(CCCCNC(=O)c3ccc(NC(=O)c4ccc(Cl)cc4)cc3)CC2)cc1 strictly below 20%?
Condition not met

Source of measurements: PubChem BioAssay
